# Tested on: A549/ATCC NSCLC
# test_method_notes: NCI-60 one-dose screen, 48 h (100 = growth as untreated, 0 = no growth, -100 = all killed)
# reported_conditions: 10 µM
Compounds without any hit were thinned out: in the full panel of roughly 83,000, 20% have a hit. Calls of active or inactive are those of the source. Rule for the calls: active = growth percent below 10; inactive = the rest.
value_type: growth

> print(dat)
                                   molecule  value.type            result
1  O=c1[nH]c2ccccc2cc1CSc1ccc(Nc2nccc(-c3ccc4c(c3)OCO4)n2)cc1      growth  76.7% (inactive)
2  O=C(Cn1nc(-c2ccccc2)ccc1=O)NN1C(=O)c2ccccc2C1=O      growth   108% (inactive)
3  N[C@@H](CSSC[C@H](N)C(=O)Nc1ccc(OCC2CCCC2)cc1)C(=O)Nc1ccc(OCC2CCCC2)cc1      growth   -90.7% (active)
4  O=C(NO)c1ccc(Cn2ccc3c(NCc4ccccc4)ncnc32)cc1      growth  28.1% (inactive)
5  O=C1Nc2ccc(Cl)cc2/C1=C/c1cccc(OCc2ccccc2)c1      growth  43.2% (inactive)
6  COc1ccc(N2N=C(c3ccc4c(c3)OCCO4)CC2c2cccc(NC(=O)CCCNS(=O)(=O)c3ccc(F)cc3)c2)cc1 (centres undefined)      growth  61.8% (inactive)
7  COc1ccc(C(=O)/C=C/c2cc(F)cc(C(F)(F)F)c2)cc1S(N)(=O)=O      growth    3.37% (active)
8              O=C(Nc1ccccc1)Nc1nc2ccccc2s1      growth  89.5% (inactive)
9  CC(=O)Nc1ccc(-c2cn(-c3cccc(C(=O)Nc4ccc(F)c(C(F)(F)F)c4)c3)nn2)cn1      growth  54.3% (inactive)

* * *

Reported growth values for a set of compounds
# Test system: NCI-H522 lung
# test_method_notes: NCI-60 one-dose screen, 48 h (100 = growth as untreated, 0 = no growth, -100 = all killed)
# reported_conditions: 10 µM
About 83,000 compounds went through this panel and 20% of them were active in at least one assay; those are over-represented in the sample as a whole. Calls of active or inactive are those of the source. Rule for the calls: active = growth percent below 10; inactive = the rest.
value_type: growth

> print(dat)
                                 cpd.smiles  value.type            result
1  Cc1cc(C)nc(NS(=O)(=O)c2ccc(N/C(N)=N/c3nccc(-c4ccccc4)n3)cc2)n1      growth  76.2% (inactive)
2  CNC(=O)c1cc(-c2ccc(NC(=O)Nc3ccc(C)cc3)cc2)nc2cccnc12      growth  87.5% (inactive)
3  COc1cc(-c2nc3cc(Cl)c(Cl)cc3[nH]2)ccc1OCc1nnc(-c2ccc(Br)cc2)o1      growth    8.01% (active)
4  CCOc1ccc(Nc2nc3ccccc3nc2Nc2ccc(OCC)cc2)cc1      growth  55.9% (inactive)
5  CCCCSc1nc(Nc2ccc(/C(C)=N/NC(N)=S)cc2)c(C#N)c(-c2ccc(F)cc2)n1      growth  43.9% (inactive)
6  COc1cc(/C=C/C(=O)c2ccc(S(=O)(=O)NCCNc3nc(Nc4ccc(F)cc4)nc(N(C)C)n3)cc2)cc(OC)c1OC      growth    68% (inactive)
7  COc1ccc2c3nc4cc(C)c(C)cc4nc3n(CCN(C)C)c2c1      growth   -22.4% (active)
8  COc1ccc2[nH]c(=O)c(CSc3ccc(Nc4nccc(-c5ccc(Cl)cc5)n4)cc3)cc2c1      growth  86.7% (inactive)
9  COc1cc(/C=C/C(=O)c2ccc(F)cc2)ccc1Oc1nc(Nc2ccc(F)cc2)nc(N(C)C)n1      growth  62.3% (inactive)
